FYI, the data here is from paper PMC9795544.

Molecular target: OATP1B1 (Homo sapiens, UniProt Q9Y6L6)
Construct: expressed in transfected cells; host or cells: A431 cells
Sequence (Q9Y6L6 whole entry): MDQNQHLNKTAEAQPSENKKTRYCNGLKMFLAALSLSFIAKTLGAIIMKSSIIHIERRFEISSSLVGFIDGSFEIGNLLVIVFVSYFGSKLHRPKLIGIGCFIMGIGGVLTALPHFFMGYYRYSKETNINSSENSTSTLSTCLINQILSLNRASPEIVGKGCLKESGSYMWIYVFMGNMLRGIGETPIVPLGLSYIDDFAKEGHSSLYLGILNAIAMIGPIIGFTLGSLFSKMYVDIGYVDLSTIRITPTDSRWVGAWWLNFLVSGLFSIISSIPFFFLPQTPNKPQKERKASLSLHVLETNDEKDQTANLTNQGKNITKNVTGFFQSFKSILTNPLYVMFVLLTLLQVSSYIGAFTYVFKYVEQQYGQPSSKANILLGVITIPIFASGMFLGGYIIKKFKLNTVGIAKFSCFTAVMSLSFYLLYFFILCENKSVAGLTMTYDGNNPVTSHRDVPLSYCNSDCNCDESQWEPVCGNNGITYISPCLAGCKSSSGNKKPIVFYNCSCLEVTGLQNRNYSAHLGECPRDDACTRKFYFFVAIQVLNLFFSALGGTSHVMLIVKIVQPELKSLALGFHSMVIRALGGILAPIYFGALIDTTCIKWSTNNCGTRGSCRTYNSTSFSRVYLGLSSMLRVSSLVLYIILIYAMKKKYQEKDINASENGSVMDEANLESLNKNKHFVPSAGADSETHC
Assay: Pyranine transport inhibition in A431 cells overexpressing OATP1B1
Type: cell-based
Conditions: initial three-point screen (1, 10, 100 μM), category by concentration needed for 50% inhibition; pyranine 10 μM, 15 min, pH 5.5; read-out: IC50 (μM) OATP1B1
Method: A431 cells overexpressing OATP1B1, OATP1B3, or OATP2B1 or their mock transfected controls were generated previously[30] and maintained in Dulbecco’s modified Eagle medium (DMEM, Gibco, Thermofisher Scientific, Waltham, MA, US) supplemented with 10% fetal bovine serum, 2 mM L-glutamine, 100 units/mL penicillin, and 100 μg/mL streptomycin. Expression and function of OATPs in the cell lines were checked regularly. […]
As shown below, each of these compounds has a reported IC50 value.

>>> meas_value("N#Cc1c(NC(=O)COC(=O)CN2C(=O)NC3(CCc4ccccc43)C2=O)sc2c1CCCCC2 (centres unmarked) [A2]")
"1 to 10 µM"
>>> meas_value("O=C1NC2(CCCc3sccc32)C(=O)N1CC(=O)N1c2ccccc2OCC1c1ccccc1 (centres unmarked) [D2]")
"> 10 µM"
>>> meas_value("COc1ccc(C2(c3ccc(OC)cc3)NC(=O)N(CC(=O)c3ccc4c(c3)OCO4)C2=O)cc1 [E2]")
"> 10 µM"
>>> meas_value("COc1cc2c(cc1NC(=O)CN1C(=O)NC(Cc3c[nH]c4ccccc34)C1=O)oc1ccccc12 (centres unmarked) [G5]")
"> 10 µM"
>>> meas_value("CSCCC(NC(=O)c1ccco1)C(=O)OCc1cc(=O)oc2cc(O)ccc12 (centres unmarked) [B7]")
"1 to 10 µM"
>>> meas_value("Cc1occc1-c1nnc(SCC(=O)c2ccc3c(c2)NC(=O)CO3)n1Cc1ccccc1 [A3]")
"1 to 10 µM"
>>> meas_value("O=C(OCC(=O)N(C1CCCCC1)C1CCCCC1)c1nn(-c2ccccc2)c(=O)c2ccccc12 [D5]")
"> 10 µM"
>>> meas_value("CCc1ccccc1NC(=O)CN1CCN(C(=O)c2cc(-c3ccncc3)nc3ccccc23)CC1 [C3]")
"1 to 10 µM"

Input line: Field request: IC50 | item: O=C(CN1C(=O)NC2(CCCc3ccccc32)C1=O)Nc1nnc(C23CC4CC(CC(C4)C2)C3)s1 (centres unmarked) [D6]
Output line: > 10 µM

Input line: I am curious: what IC50 value has been reported for O=C(NCc1ccc(N2CCOCC2)nc1)c1ccccc1CSc1nc2ccccc2[nH]1 [F6] ?
Output line: > 10 µM

Input line: Please look up its IC50: CCn1cnc2c1c(=O)n(CC(=O)NC1CCCC(C)C1C)c(=O)n2Cc1ccccc1 (centres unmarked) [E6]
Output line: > 10 µM

Input line: Can you share its IC50? I mean this compound: Cc1cc(NS(=O)(=O)c2ccc(NC(=O)Cc3coc4c(C)c(C)ccc34)cc2)nc(C)n1 [F5]
Output line: 1 to 10 µM

Input line: So what does the record say about IC50 for O=C(Nc1ccccc1)C1CCN(C(=O)c2cc(-c3ccccc3)nc3ccccc23)CC1 [G2] ?
Output line: 1 to 10 µM

Input line: Given the entry Cc1cc(C)n2nc(SCc3ccccc3C(=O)NCCc3ccc4c(c3)OCCO4)nc2n1 [C2] , report its measured IC50.
Output line: 1 to 10 µM
